meta.source: paper PMC8145596

Reported suppression of intracellular tyrosinase activity values are given for each entry in this list.
- Tested on: tyrosinase activity in B16F10 cells
- experiment summary: Intracellular tyrosinase activity in B16F10 cell lysates
- Assay type: cell-based, mouse
- study conditions: 10 µM, 48 h
// note: answer is a bare numeric in %

Some solved cases for reference:
Param readout= suppression of intracellular tyrosinase activity; system= tyrosinase activity in B16F10 cells; entry= COc1cc(/C=C/C(=O)/C(C(=O)Nc2ccccc2)=C(O)/C=C/c2ccc(O)c(OC)c2)ccc1O ; returns value. 30.04

Next: O=C(/C=C/c1ccc(O)cc1)/C(C(=O)Nc1ccccc1)=C(O)/C=C/c1ccc(O)cc1 53.76

One more compound: COC(=O)/C(C(=O)/C=C/c1ccc(O)cc1)=C(O)\C=C\c1ccc(O)cc1 50.31

Consider the record given below.
Quick check: suppression of intracellular tyrosinase activity on tyrosinase activity in B16F10 cells, item COC(=O)/C(C(=O)/C=C/c1ccc(O)c(OC)c1)=C(O)\C=C\c1ccc(O)c(OC)c1 ? 19.98
